Data provenance: patent US10947242B2

target: Human recombinant PDE2A (hPDE2A) (Homo sapiens, UniProt O00408); construct: His tag (inferred from metal chelate purification); made in house; host or cells: Sf9 insect cells (baculovirus); assay: In vitro assay PDE2A (SPA, 3H-cGMP hydrolysis); format: biochemical; details: read-out: hPDE2A Emax
Sequence (O00408 whole entry): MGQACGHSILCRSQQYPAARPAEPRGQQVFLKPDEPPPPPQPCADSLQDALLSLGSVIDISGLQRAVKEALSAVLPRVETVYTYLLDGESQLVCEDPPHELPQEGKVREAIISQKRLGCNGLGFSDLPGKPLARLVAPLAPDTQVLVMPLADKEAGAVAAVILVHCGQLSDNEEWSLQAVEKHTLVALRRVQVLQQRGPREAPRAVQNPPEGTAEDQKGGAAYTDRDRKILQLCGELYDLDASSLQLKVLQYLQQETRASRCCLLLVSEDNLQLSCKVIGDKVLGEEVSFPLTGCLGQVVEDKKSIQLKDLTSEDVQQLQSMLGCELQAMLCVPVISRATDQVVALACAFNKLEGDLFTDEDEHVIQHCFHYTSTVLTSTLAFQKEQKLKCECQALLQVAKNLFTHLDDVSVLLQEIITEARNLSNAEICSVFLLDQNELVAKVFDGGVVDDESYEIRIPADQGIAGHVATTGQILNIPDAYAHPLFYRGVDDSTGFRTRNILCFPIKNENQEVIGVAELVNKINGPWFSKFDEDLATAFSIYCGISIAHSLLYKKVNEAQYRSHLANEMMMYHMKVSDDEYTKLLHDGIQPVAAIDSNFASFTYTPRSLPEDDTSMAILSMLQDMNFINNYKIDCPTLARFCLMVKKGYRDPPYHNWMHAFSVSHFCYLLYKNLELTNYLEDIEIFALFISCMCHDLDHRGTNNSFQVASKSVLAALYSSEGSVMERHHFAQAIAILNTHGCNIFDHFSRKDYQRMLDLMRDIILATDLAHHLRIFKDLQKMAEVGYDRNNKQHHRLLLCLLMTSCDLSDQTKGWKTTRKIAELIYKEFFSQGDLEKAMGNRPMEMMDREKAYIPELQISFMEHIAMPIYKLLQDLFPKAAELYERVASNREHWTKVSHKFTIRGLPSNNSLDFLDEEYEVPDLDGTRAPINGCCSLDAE

smi: C[C@@H]1CCN(C(=O)c2cc(F)ccn2)C[C@H]1c1cc(C(F)F)nc2ncnn12
assayed-system: Human recombinant PDE2A (hPDE2A) (Homo sapiens, UniProt O00408)
Emax (%): 99

smi: Cc1nc2cccc(C(=O)N3CC[C@@H](C)[C@H](c4cc(C(F)F)nc5ncnn45)C3)c2o1
assayed-system: Human recombinant PDE2A (hPDE2A) (Homo sapiens, UniProt O00408)
Emax (%): 100

smi: Cc1cc([C@@H]2CN(C(=O)c3ccnc(Cl)c3F)CC[C@H]2C)n2ncnc2n1
assayed-system: Human recombinant PDE2A (hPDE2A) (Homo sapiens, UniProt O00408)
Emax (%): 100

smi: Cc1csc(C(=O)N2CC[C@@H](C)[C@H](c3cc(C(F)F)nc4ncnn34)C2)c1Cl
assayed-system: Human recombinant PDE2A (hPDE2A) (Homo sapiens, UniProt O00408)
Emax (%): 100

smi: Cc1cc([C@@H]2CN(C(=O)c3cnc4ccc(C(F)(F)F)cn34)CC[C@H]2C)n2ncnc2n1
assayed-system: Human recombinant PDE2A (hPDE2A) (Homo sapiens, UniProt O00408)
Emax (%): 101

smi: Cc1cc(C(=O)N2CC[C@@H](C)[C@H](c3cc(C(F)F)nc4ncnn34)C2)cc(Cl)n1
assayed-system: Human recombinant PDE2A (hPDE2A) (Homo sapiens, UniProt O00408)
Emax (%): 100

smi: C[C@@H]1CCN(C(=O)c2ccc3ccccc3n2)C[C@H]1c1cc(C(F)F)nc2ncnn12
assayed-system: Human recombinant PDE2A (hPDE2A) (Homo sapiens, UniProt O00408)
Emax (%): 100

smi: COc1cc(C(=O)N2CC[C@@H](C)[C@H](c3cc(C(F)F)nc4ncnn34)C2)cc(OC)n1
assayed-system: Human recombinant PDE2A (hPDE2A) (Homo sapiens, UniProt O00408)
Emax (%): 101

smi: Cc1cc(C(=O)N2[C@H]3CC[C@H](c4cc(C(F)F)nc5ncnn45)[C@@H]2CC3)ccc1Cl
assayed-system: Human recombinant PDE2A (hPDE2A) (Homo sapiens, UniProt O00408)
Emax (%): 101

smi: Cc1csc(C(=O)N2[C@H]3CC[C@H](c4cc(C(F)F)nc5ncnn45)[C@@H]2CC3)c1
assayed-system: Human recombinant PDE2A (hPDE2A) (Homo sapiens, UniProt O00408)
Emax (%): 101

smi: Cn1c(C(=O)N2[C@H]3CC[C@H](c4cc(C(F)F)nc5ncnn45)[C@@H]2CC3)cc2ccccc21
assayed-system: Human recombinant PDE2A (hPDE2A) (Homo sapiens, UniProt O00408)
Emax (%): 100

smi: Cc1cc(C)nc(C(=O)N2CC[C@@H](C)[C@H](c3cc(C(F)F)nc4ncnn34)C2)c1
assayed-system: Human recombinant PDE2A (hPDE2A) (Homo sapiens, UniProt O00408)
Emax (%): 100

smi: Cc1cc(C(=O)N2CC[C@@H](C)[C@H](c3cc(C(F)F)nc4ncnn34)C2)c(F)c(OC2CC2)n1
assayed-system: Human recombinant PDE2A (hPDE2A) (Homo sapiens, UniProt O00408)
Emax (%): 99

smi: Cc1cc([C@@H]2CN(C(=O)c3cnc(Cl)c(Cl)c3)CC[C@H]2C)n2ncnc2n1
assayed-system: Human recombinant PDE2A (hPDE2A) (Homo sapiens, UniProt O00408)
Emax (%): 99

smi: Cc1cc([C@@H]2CC[C@@H]3CC[C@H]2N3C(=O)c2ccc3ncsc3c2)n2ncnc2n1
assayed-system: Human recombinant PDE2A (hPDE2A) (Homo sapiens, UniProt O00408)
Emax (%): 93

smi: C[C@@H]1CCN(C(=O)c2ccc(F)c(C(F)(F)F)c2)C[C@H]1c1cc(C(F)F)nc2ncnn12
assayed-system: Human recombinant PDE2A (hPDE2A) (Homo sapiens, UniProt O00408)
Emax (%): 99

smi: C[C@@H]1CCN(C(=O)c2cc(Cl)cc(Cl)c2)C[C@H]1c1cc(C(F)F)nc2ncnn12
assayed-system: Human recombinant PDE2A (hPDE2A) (Homo sapiens, UniProt O00408)
Emax (%): 100

smi: COc1cc(C(=O)N2CC[C@@H](C)[C@H](c3cc(C(F)F)nc4ncnn34)C2)ccc1Cl
assayed-system: Human recombinant PDE2A (hPDE2A) (Homo sapiens, UniProt O00408)
Emax (%): 100
